Hey, just so you know, these numbers are from patent US20050276867A1.

- Condition Context: ingredient added at ppm shown (100) to brimonidine composition; 14 days
Field: Stabilized Chlorine Dioxide Concentration, 14 Days. Provide a value for each of the compounds that follow.
Note: unit ppm is implicit; provide only the numeric part.

# Stabilized Chlorine Dioxide Concentration, 14 Days lookup, item O=C([O-])/C(O)=C(\O)C(=O)[O-].[Na+].[Na+] [Sodium Dihydroxyfurmarate] 0

Quick one: O=C([O-])C(=O)[O-].[Na+].[Na+] [Sodium Oxalate] 35

Now try CC(O)C(=O)[O-].[Na+] (centres unmarked) [Sodium Lactate] . 37

Can you check O=C(O)CN(CCN(CC(=O)O)CC(=O)O)CC(=O)O next? 0

Now the same for O=C[O-].[Na+] [Sodium Formate] 36

* * *

What Stabilized Chlorine Dioxide Concentration, 0 Days was measured for each of the following?
- Condition Context: ingredient added at ppm shown (100) to brimonidine composition; 0 days
Response body: numeric value in ppm, unit text excluded.

Entry O=C(O)CN(CCN(CC(=O)O)CC(=O)O)CC(=O)O : reported Stabilized Chlorine Dioxide Concentration, 0 Days = ? 44

Queued: O=C([O-])C(=O)[O-].[Na+].[Na+] [Sodium Oxalate] 39

Can you handle CC(O)C(=O)[O-].[Na+] (centres unmarked) [Sodium Lactate] next? 45

What do you have for O=C([O-])/C(O)=C(\O)C(=O)[O-].[Na+].[Na+] [Sodium Dihydroxyfurmarate] ? 37

Also check O=C[O-].[Na+] [Sodium Formate] 42
